Values were extracted from patent US9815851B2.

biological target: UniProt P51449; assay: RORγ Gal4 Reporter Gene Assay in 293T cells (firefly and renilla luciferase); format: cell-based, human; conditions: second value of the cell; Gal4 reporter gene assay in 293T cells, firefly luciferase
# key: entry, value: pIC50 (FF)
No unit in the answer, only the number.

Previously resolved entries follow.
Cc1c(C(=O)NC2CCOCC2)cc(-c2ccc(C(C)(C)C(=O)NC(C)(C)C)c(C(F)(F)F)c2)n1CC1CCCCC1 :: 6.3
Cc1c(C(=O)NC2CCOCC2)cc(-c2cc(Cl)cc(C3(C)CC3)c2)n1CC1CCCCC1 :: 7.0
Cc1c(C(=O)NC2COC2)cc(-c2cc(C(C)(C)C)cc(C(C)(C)C)c2)n1S(=O)(=O)N1CCC2(CCCC2)C1 :: 6.6
Cc1c(C(=O)NCC2(O)CCOCC2)cc(-c2ccc(S(=O)(=O)NC(C)(C)C)c3ccccc23)n1CC1CCCCC1 :: 7.9
Cc1c(C(=O)NC2CCOCC2)cc(-c2ccc(S(=O)(=O)NC(C)(C)C)c(OC(F)(F)F)c2)n1CC1CCCCC1 :: 7.8

QUERY: Please state recorded pIC50 (FF) (tested on UniProt P51449) of Cc1c(C(=O)NC2CCOCC2)cc(-c2ccc(S(=O)(=O)NC(C)(C)C)c(C(F)(F)F)c2)n1C1CC12CCCC2 (stereo not drawn)
RESULT: 6.6

QUERY: Please state recorded pIC50 (FF) (tested on UniProt P51449) of `Cc1c(C(N)=O)cc(-c2ccc(C(O)(C(F)(F)F)C(F)(F)F)cc2)n1CC1CCCCC1`
RESULT: 5.6

QUERY: Please state recorded pIC50 (FF) (tested on UniProt P51449) of `CC(C)(C)NS(=O)(=O)c1ccc(-c2cc(C(=O)NC3CCOCC3)cn2CC2CCCCC2)cc1C(C)(C)C`
RESULT: 7.3

QUERY: Please state recorded pIC50 (FF) (tested on UniProt P51449) of `Cc1c(C(=O)NC2CCOCC2)cc(-c2ccc(-c3ccnn3C(C)C)c(C(C)(C)O)c2)n1CC1CCCCC1`
RESULT: 6.4

QUERY: Please state recorded pIC50 (FF) (tested on UniProt P51449) of `Cc1c(C(=O)NC2COC2)cc(-c2ccc(C(=O)N(C)C(C)(C)C)c(C(C)(C)C)c2)n1CC1CCCCC1`
RESULT: 6.4

* * *

Biological target: UniProt:P51449
Sequence (P51449 1-518): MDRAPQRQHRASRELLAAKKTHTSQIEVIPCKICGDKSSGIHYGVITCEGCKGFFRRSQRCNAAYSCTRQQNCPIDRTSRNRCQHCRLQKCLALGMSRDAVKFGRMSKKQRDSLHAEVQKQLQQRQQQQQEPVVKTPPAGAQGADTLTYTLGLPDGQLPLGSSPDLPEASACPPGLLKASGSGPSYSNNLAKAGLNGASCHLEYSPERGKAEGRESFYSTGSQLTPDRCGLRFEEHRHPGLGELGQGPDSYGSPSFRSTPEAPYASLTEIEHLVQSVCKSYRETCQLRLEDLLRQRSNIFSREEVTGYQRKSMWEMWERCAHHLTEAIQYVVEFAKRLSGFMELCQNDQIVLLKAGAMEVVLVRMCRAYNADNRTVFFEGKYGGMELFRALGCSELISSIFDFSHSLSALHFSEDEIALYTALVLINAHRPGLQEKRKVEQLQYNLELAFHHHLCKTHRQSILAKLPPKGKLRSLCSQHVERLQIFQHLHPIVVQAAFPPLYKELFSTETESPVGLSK
Assay: RORγ Gal4 Reporter Gene Assay in 293T cells (firefly and renilla luciferase)
Type: cell-based, human
Conditions: third value of the cell; Gal4 reporter gene assay in 293T cells, renilla normalised luciferase
Decision: pIC50 (REN) >= 7 yields met, all other cases yield not met.

Cc1c(C(=O)NCCc2nn[nH]n2)cc(-c2ccc(S(=O)(=O)NC(C)(C)C)c(C(C)(C)O)c2)n1CC1CCCCC1 :: not met
Cc1c(C(=O)NC2CCOCC2)cc(-c2cc(C(=O)NC(C)C)cc(C(C)(C)O)c2)n1CC1CCCCC1 :: not met
Cc1c(C(=O)NCC(C)(C)C(=O)O)cc(-c2ccc(S(=O)(=O)NC(C)(C)C)c(OC(F)(F)F)c2)n1CC1CCCCC1 :: met

Okay, now this compound:
QUERY: Threshold query (pIC50 (REN) >= 7) on `Cc1c(C(=O)N[C@H]2C[C@H](C(=O)O)C2)cc(-c2cc(C(=O)NC(C)(C)C)cc3ccccc23)n1CC1CCCCC1`
RESULT: not met
